Each recorded value in this set is attributed to paper PMC7723353.

Assay: Cytotoxicity by MTT assay in Vero cells
Format: cell-based
Details: African green monkey, Vero cells (African green monkey kidney)

[
  {
    "molecule": "NC(=O)c1ncn([C@@H]2O[C@H](CO)[C@@H](O)[C@H]2O)n1 [Ribavirin, reference compound]",
    "CC50 at 4 days / µM": 2590
  },
  {
    "molecule": "CC(C)c1cc2c(cc1O)[C@@]1(C)CCC[C@@](C)(C=O)[C@@H]1CC2 [Compound 8, 18-oxoferruginol]",
    "CC50 at 4 days / µM": 35.1
  }
]
